- System: IL-5 production
- measurement_notes: In vitro inhibition of IL-5 production in human blood (phytohemagglutinin-stimulated whole blood, ELISA);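 note: values marked with an asterisk were tested at 10 µM and unmarked values at 1 µM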
- Format: cell-based
- condition_context: test dose 1×10^−6 M, 48 hours
Collected % inh. (percentage inhibition of IL-5 production) values appear next to each entry.
Please reply with the bare figure in % and do not write the unit itself.

> print(dat)
                                   compound  value
1  O=c1cnn(-c2cc(Cl)c(C(Sc3nc(-c4ccccc4)cs3)c3ccc(Cl)c(C(F)(F)F)c3)c(Cl)c2)c(=O)[nH]1 (stereo not shown)     95
2  CNC(=O)Cc1sc(C(c2ccc(Cl)cc2)c2c(Cl)cc(-n3ncc(=O)[nH]c3=O)cc2Cl)nc1-c1ccccc1 (racemic)     33
3  CCOC(=O)c1csc(C(c2ccc(Cl)cc2)c2c(Cl)cc(-n3ncc(=O)[nH]c3=O)cc2Cl)n1 (racemic)     64
4  O=c1cnn(-c2cc(Cl)c(C(c3ccc(Cl)cc3)c3nc(-c4cccc(F)c4F)cs3)c(Cl)c2)c(=O)[nH]1 (racemic)     96
5  CN1CCC(NC(c2ccc(Cl)cc2)c2ccc(-n3ncc(=O)[nH]c3=O)cc2Cl)CC1 (racemic)     29
6  CCOC(=O)Cc1sc(C(c2ccc(Cl)cc2)c2c(Cl)cc(-n3ncc(=O)[nH]c3=O)cc2Cl)nc1-c1ccccc1 (racemic)     94

query: What value of % inh. (percentage inhibition of IL-5 production) has been reported for the following compound? NC(c1ccc(Cl)cc1)(c1nc2ccccc2s1)c1ccc(-n2ncc(=O)[nH]c2=O)cc1Cl (stereo not shown)
result: 79
